Please go through the items and note down their cytotoxicity.
Assay: cytotoxicity in HPDE-C7 cells, cell-based, fluorescence, HTS (AID 430);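 note: cells exposed to compound for 48 hours before viability readout; 0% = vehicle and 100% = reference cytotoxic drug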
Settings: HPDE-C7 pancreatic duct cells viability, at 10 µM, hits give high values
Among all 63,000 compounds or so, about 1,100 (1.7%) were called active. This excerpt belongs to a sample that is enriched for actives. Entries with a potency or affinity are not part of this list.
Give the value in % but do not write % after it.

Entry CCC(=O)Nc1ccc(NC(=O)c2cc3ccccc3o2)cc1 : reported cytotoxicity = ?
-18.1

Then O=C(NCc1cccnc1)c1ccc(COc2ccccc2Br)o1 ?
13.1

Then O=C(Nc1ccc(N2CCOCC2)c(Cl)c1)c1c(F)c(F)c(F)c(F)c1F ?
54.5

Then O=C(Cc1ccc(Cl)cc1)Nc1ccc(N2CCN(C(=O)c3ccco3)CC2)c(Cl)c1 ?
19.6

Then CCOC(=O)N1CCN(Cc2nc3c(c(=O)[nH]c(=O)n3C)n2Cc2cc(C)ccc2C)CC1 ?
-12.2
